Tested on: Plasmodium berghei
Experiment: Screen against P. berghei liver stage (PbLuc), transformed with Luciferase, at 2uM
Assay type: functional, HepG2
Conditions: tested at 2 uM
The campaign covered roughly 68,000 compounds. About 2,700 (4%) showed an effect of 50% or more. What follows is part of a selection rich in strong results, with near analogues and random picks from the rest.
assay_endpoint: INHIBITION (%)
Quick note: give the figure in %, leave out the unit.

// known answers, use as guide
compound | units | quantitative_readout
O=C(c1cc(C2CC2)[nH]n1)N1CCN(Cc2ccccc2)CC1 | % | 5.52
O=C(C1=CCCC1)N1C[C@H](OCc2cccnc2)[C@H]2OCCC[C@H]21 | % | 31.46
O=C(NCCO)c1cc(-c2ccc3c(c2)CCO3)n[nH]1 | % | 51.31
CN(C)CCCNC(=O)c1cc(-c2ccc3c(c2)CCO3)n[nH]1 | % | -4.01

Asked: Using known records, supply INHIBITION for "CCc1cc(C(=O)N[C@@H]2CC[C@@H](N3CCOCC3)[C@@H]2O)no1"
Given back: -49.75

Asked: Output measured INHIBITION for this item: Cc1cccc(CN2CCCCC23CCNC3)n1 (stereo unspecified)
Given back: 22.16

Asked: Determine its reported INHIBITION: Cc1cccc(CN2CCC23CCCNC3)n1 (stereo unspecified)
Given back: 20.51

Asked: For the compound "CC(C)c1ccc(CN2CCN(C(=O)c3cc(C4CC4)[nH]n3)CC2)cc1" , report INHIBITION.
Given back: 38.87

====

System: Plasmodium berghei
Experiment: Screen against P. berghei liver stage (PbLuc), transformed with Luciferase, at 2uM
Format: functional, HepG2
Conditions: tested at 2 uM
Hit rate of the full screen: of about 68,000 compounds, about 2,700 (4%) showed an effect of 50% or more. What follows is part of a selection rich in strong results, with near analogues and random picks from the rest.
Each entry below carries its reported INHIBITION.
Use % as the unit, but write only the number.

Examples with their reported INHIBITION follow.
compound | units | INHIBITION
O=C(CCn1cccn1)N1CCC(C2CCN(c3ncccn3)CC2)C1 (stereo not drawn) | % | 52.08
CN1C(=O)CCCC12CCCN(C(=O)c1cc(F)cc(F)c1)C2 (stereo not drawn) | % | 12.83
Cc1cc(C2CCCN2Cc2cccc(C(=O)Nc3nccs3)c2)no1 (stereo not drawn) | % | 2.7

Asked: Report measured INHIBITION; entry is "COc1c(C)cnc(CNC(=O)CCOCc2ccccc2)c1C"
Given back: 65.76

Asked: Please list INHIBITION recorded for the compound "CN1CCCN(C(=O)c2ccnn2-c2ccc3ccccn23)CC1"
Given back: -25.2

Asked: Give me measured INHIBITION, please, for this compound: O=C1CSC(c2ccncc2)c2c[nH]nc2N1 (stereo not drawn)
Given back: 76.13

Asked: Indicate its recorded INHIBITION; the compound in question is "O=C1CN(Cc2ccc3ccccc3n2)CCN1C1CCCC1"
Given back: -34.37

Asked: Supply recorded INHIBITION for CCN(CC)C(=O)C1CCCN(CC(=O)Nc2c(C)nn(CC)c2C)C1 (stereo not drawn) here.
Given back: 23.58

====

System: Plasmodium berghei
Assay: Screen against P. berghei liver stage (PbLuc), transformed with Luciferase, at 2uM
Assay type: functional, HepG2
Conditions: tested at 2 uM
Hit rate of the full screen: of about 68,000 compounds, about 2,700 (4%) showed an effect of 50% or more. The entries come from a sample that favours strong results as a whole.
I'd appreciate it if you marked entries t when INHIBITION is lower than 20% and f when it is not.

Here are 3 compounds together with their reported answers.
compound | class_assignment
CC(C)Oc1ccc(C(=O)N2CC[C@H](O)[C@@H](n3ccnc3)CC2)cc1 | f
CC(C)(C)CN1CC(COc2ccccc2)Oc2ccncc2S1(=O)=O (stereo not drawn) | t
Cc1nn(C)c(N(C)C)c1CNC(C)COc1ccc(F)cc1F (stereo not drawn) | f

Asked: hey, is INHIBITION for "Cc1cnc(CNc2ncc(C)c(-c3cnn(C)c3)n2)cn1" lower than 20% or not?
Given back: t

Asked: Threshold test, INHIBITION < 20%: CCCc1nnc(NC(=O)N2CCCC(NC(C)=O)C2)s1 (stereo not drawn)
Given back: f

Asked: Does the reported INHIBITION of CC(=O)NC1CCCN(C(=O)NCc2cccnc2N(C)C)C1 (stereo not drawn) stay below 20%?
Given back: f

Asked: Bench note: check whether CCCC(=O)N(Cc1ccncc1)C(C)CC (stereo not drawn) shows INHIBITION below 20%
Given back: f

Asked: Does "Fc1ccc(CN2CC[C@H]3O[C@@H](COCC4CCOCC4)CC[C@H]32)cc1" have INHIBITION strictly under 20%?
Given back: f

Asked: Find out if reported INHIBITION for "Cc1noc([C@]23COC[C@H]2CN(C(=O)Cc2ccsc2)C3)n1" is less than 20%
Given back: t

Asked: Field: below-cutoff. Rule: recorded INHIBITION strictly less than 20%. Subject: "CCn1c(CN2CCCC2)nnc1C1CCN(Cc2cccnc2)CC1"
Given back: t

Asked: For "c1cncc(COCc2nnc3n2CCN(Cc2ccco2)C3)c1" , is the recorded INHIBITION below the cut-off of 20%?
Given back: t

Asked: Below 20% on INHIBITION? Entry "c1ncn(Cc2nnc(C3CCN(C4CCOCC4)CC3)n2C2CC2)n1"
Given back: t

Asked: Lab log: compare recorded INHIBITION with 20%; is it strictly lower for "CCn1c(CN2CCCC2)nnc1C1CCN(Cc2ccncc2)CC1" ?
Given back: f

Asked: Below 20% on INHIBITION? Entry Cn1ccnc1C(=O)N1CCC2(CCN2c2ncccn2)C1 (stereo not drawn)
Given back: t

Asked: Here's an entry: "COCc1ccc(C(=O)N2CC[C@H](O)[C@@H](n3ccnc3)CC2)cc1" . Is its INHIBITION below 20%?
Given back: t

Asked: Just wondering, is INHIBITION of "COc1cccc(-c2noc(-c3ccc(NCC4CC4)nc3)n2)c1OC" below 20%?
Given back: t

Asked: Report whether reported INHIBITION is lower than 20% (strictly) for "CCC(CC)c1nnc(NC(=O)N2CCC(C(N)=O)CC2)s1"
Given back: f

Asked: Is 20% strictly greater than the compound's reported INHIBITION? compound: "O=C(NCc1ccccn1)[C@@H]1CCO[C@@H]2CCN(Cc3ccoc3)C[C@H]21"
Given back: t

Asked: Does the reported INHIBITION of "O=C(c1cccnc1-c1ccoc1)N1C[C@@H]2CC[C@H]1C2" stay below 20%?
Given back: t

Asked: In plain terms, does CCCc1nnc(NC(=O)N2CCCC2c2ccncc2)s1 (stereo not drawn) come in under 20% for INHIBITION?
Given back: t

Asked: For NC(=O)COc1ccc(C(=O)N2CCCC(n3ccnc3)C2)cc1 (stereo not drawn) , is the recorded INHIBITION below the cut-off of 20%?
Given back: t

Asked: Consider "CCCc1nnc(N2CC[C@](C)(O)[C@H](C)C2)s1" . Does its INHIBITION lie strictly below 20%?
Given back: f
